Cited source: PubChem BioAssay (NCI)

# Test system: T-47D breast
# Protocol: NCI-60 one-dose screen, 48 h (100 = growth as untreated, 0 = no growth, -100 = all killed)
# Experimental Context: 10 µM unless noted
The panel holds about 83,000 compounds, 20% with a hit somewhere; the sample as a whole holds those more often.
Measured Attribute: growth (%)
# value in %; strip the unit string

Ask: Give a short answer stating reported growth for `Cc1nc2sccn2c1-c1nnc(SCC(C)C)o1` .
Result: 59.4

Ask: Entry `COc1ccc(N=Nc2c(N)nn3c(-c4ccc5c(c4)C=S=C5)ccnc23)cc1` needs its growth filled in; supply it.
Result: 3.67

Ask: Name the recorded growth of the compound listed here: `Cc1nc2sccn2c1-c1nnc(SCc2ccccc2)o1`
Result: 74.5

Ask: State, in one line, measured growth of `CCCCCCCCc1ccc(C(=O)Nc2ccc(C)c(OP(=O)(O)O)c2)cc1`
Result: 90

Ask: Provide only the value of recorded growth for `O=C(NN1C(=O)/C(=C/C=C/c2ccc([N+](=O)[O-])o2)SC1=S)c1ccncc1`
Result: -59.4

Ask: Give the reported growth for this compound. COc1ccc(SC2c3cc(OC)ccc3Oc3nc(N)c(C#N)c(N)c32)cc1 (stereo unspecified)
Result: 77.4

----------
# Test system: HS 578T breast
# Protocol: NCI-60 one-dose screen, 48 h (100 = growth as untreated, 0 = no growth, -100 = all killed)
# Experimental Context: 10 µM unless noted
Compounds without any hit were thinned out: in the full panel of roughly 83,000, 20% have a hit.
What growth was measured for each of the following?
The reply should be a number in %, with the unit left off.

Ask: Find the measured growth of CCc1ccc(SC2c3cc(OC)ccc3Oc3nc(N)c(C#N)c(N)c32)cc1 (stereo not given) and report it.
Result: -40.5

Ask: Identify growth associated with the compound `COc1ccc(/C=C/c2nc3ccccc3c(=O)n2CC(=O)Nc2ccccc2)cc1`
Result: 9.93

Ask: In one line, give reported growth of the entry `c1n[nH]cc1-c1nc2ccc3cn[nH]c3c2c2c1CCCC2` .
Result: 53

Ask: Using the record for Cc1cc(C(NC(=O)CCCCCNc2cccc3c2C(=O)N(C2CCC(=O)CC2=O)C3=O)c2cccc(N(C)C)c2)c(O)c2ncccc12 (stereo not given) , state its measured growth.
Result: 19.6

Ask: Quick one: give measured growth for `CCc1ccccc1-c1nc(CN[C@@H]2C[C@@H]3C[C@H]([C@H]2C)C3(C)C)c(C)o1`
Result: -43.4

----------
# Tested on: A549/ATCC NSCLC
# Protocol: NCI-60 one-dose screen, 48 h (100 = growth as untreated, 0 = no growth, -100 = all killed)
# Experimental Context: 10 µM unless noted
The panel holds about 83,000 compounds, 20% with a hit somewhere; the sample as a whole holds those more often.
Measured Attribute: growth (%)
Please give a number only; it is taken to be in %.

Ask: Retrieve growth measured for CC(C)(C)C(=O)C1CC(C#N)=C2C=Cc3c(ccc4ccccc34)N21 (stereo unspecified) and print it.
Result: 81.2

Ask: Name the recorded growth of the compound listed here: COc1cc(C2CC(c3cc(OC)c(OC)c(OC)c3)=Nc3c(N)nc(N)nc3N2)ccc1Oc1nc(Nc2ccc(F)cc2)nc(N(C)C)n1 (stereo unspecified)
Result: 52.9

Ask: Fill in growth for record Fc1cccc(CNc2nc(SCCN3CCOCC3)nc3c2cnn3CC(Cl)c2ccc(Br)cc2)c1 (stereo unspecified)
Result: 19.9

Ask: Report measured growth; entry is Fc1ccccc1CNc1nc(SCCN2CCOCC2)nc2c1cnn2CC(Cl)c1ccc(Br)cc1 (stereo unspecified)
Result: 27.7

Ask: Provide measured growth value, entry: `Clc1ccc(-c2nc3c4c(-c5ccccc5)c(-c5ccccc5)n(Cc5ccccc5)c4ncn3n2)cc1`
Result: 14.1

Ask: Specify measured growth for `COC(=O)c1cc(C(=O)CBr)n2c1ccc1c3ccccc3ccc12` .
Result: 31.3

Ask: Output measured growth for this item: `O=C(/C=C1\C(=O)N(Cc2ccccc2)c2ccccc21)c1cc2ccccc2oc1=O`
Result: 104

Ask: State its growth for this compound: `O=C(CSc1nnc(-c2ccc(-c3nc4ccccc4[nH]3)cc2)o1)Nc1ccc(Br)cc1`
Result: 0.989

Ask: Look up growth of `COc1ccc(C(=O)c2c(N)c(C#N)cn2-c2ccc([N+](=O)[O-])cc2)cc1` and report it.
Result: 103

Ask: Determine from records and report growth for `CC[C@@]12CC(C(=O)OC)=C3Nc4cc5c(cc4[C@@]34CCN(C[C@H]3O[C@H]31)[C@@H]24)[C@@H]1[C@H](O5)[C@@H](O)[C@@]2(CC)CC(C(=O)OC)=C3Nc4cc(O)ccc4[C@@]34CCN1[C@@H]24`
Result: 4.31

Ask: Fill in growth for record `Cc1[nH]nc2ccc3nc(-c4cnn(CCO)c4)c4c(c3c12)CCCC4`
Result: 49.3

Ask: Hello, please tell me recorded growth for this one: `O=C1NC(=NC23CC4CC(CC(C4)C2)C3)N/C1=C\c1ccc2ncccc2c1`
Result: -46.3

Ask: Could you please provide reported growth for `Cc1ccc(C(=O)Nc2cc(-n3ccnc3C)cc(C(F)(F)F)c2)cc1C#Cc1cnc2cccnn12` ? Thanks!
Result: 11.3

Ask: Give a short answer stating reported growth for CC1=C(C(=O)Nc2ccccc2)C(c2cccc(Cl)c2Cl)n2c(nc3ccccc32)N1 (stereo unspecified) .
Result: 33.2

Ask: Identify the reported growth for the following entry. `CCCN(CCC)S(=O)(=O)c1ccc(C(=O)O)cc1.CCCN(CCC)S(=O)(=O)c1ccc(C(=O)O)cc1.[Cl][Pt+2][Cl].[NH2-].[NH2-]`
Result: 33

Ask: Please give measured growth of the following entry: `Cc1nc2sccn2c1-c1nnc(SCc2ccccc2)o1`
Result: 91.2

Ask: Identify measured growth corresponding to N#CC1=C(c2ccco2)Nc2c(c(-c3ccccc3)nn2-c2ccccc2)C12C(=O)Nc1ccc(Cl)cc12 (stereo unspecified)
Result: -37.1

Ask: Give reported growth value for `O=C(Nc1nc2ccc([N+](=O)[O-])cc2s1)Nc1ccccc1F`
Result: 12.2

Ask: Answer with reported growth of `CC(C)CN1C(=O)/C(=C\C(=O)c2cc3ccccc3oc2=O)c2ccccc21`
Result: 109

Ask: Note down growth recorded for CCN(C(=O)CN1C(=O)/C(=C/c2ccco2)SC1=S)C1CCS(=O)(=O)C1 (stereo unspecified)
Result: 102

Ask: Give the reported growth for this compound. `Cc1ccc(Cl)cc1NC(=O)Nc1nc2ccc([N+](=O)[O-])cc2s1`
Result: -25.8

Ask: # return recorded growth for entry `c1n[nH]cc1-c1nc2ccc3cn[nH]c3c2c2c1CCCC2`
Result: 95.1

Ask: Fill in reported growth for this entry: `COc1cccc2nc(Nc3cccc(NC(=O)c4ccc(CN5CCN(C)CC5)c(C(F)(F)F)c4)c3)ccc12`
Result: -70.5

Ask: Please list growth recorded for the compound `Cn1cc(-c2cc(N)n3nc(-c4c[nH]c5ccc(F)cc45)cc3n2)c2cccnc21`
Result: -87.1

Ask: Name the recorded growth of the item `S=C(Nc1ccc(OCc2nc3ccc(Cl)cc3[nH]2)cc1)NC1CCCCC1` in your answer.
Result: 15.6

Ask: Give growth for COC(=O)c1c(C(=O)OC)c2ccc3c4ccccc4ccc3n2c1C(=O)C(C)Br (stereo unspecified)
Result: 50.5

Ask: Answer with the recorded growth of `O=C(c1cc2cc(OCCCN3CCC3)ccc2[nH]1)N1C[C@@H](CCl)c2c1cc(OCc1ccccc1)c1ccccc21` only.
Result: -18.5

Ask: Note down growth recorded for `CC(C)C[C@H](NC(=O)[C@@H]1CCCCCCCCCCC(=O)N[C@@H](CC(=O)N2CCC[C@@H]2C2CCCC2)C(=O)N1)B(O)O`
Result: 1.48

Ask: Return value of growth for input `COc1ccc(NC(=O)CSc2nnc(-c3ccc(-c4nc5ccccc5[nH]4)cc3)o2)cc1` , no commentary.
Result: 6.46

Ask: Give growth for the following compound: `COc1ccc2[nH]c(=O)cc(-n3ncc(C(=O)/C=C/c4cc(OC)c(OC)c(OC)c4)c3C)c2c1`
Result: 8.31

Ask: Specify measured growth for `O=C1N/C(=N\c2nccs2)S/C1=C\c1ccc([N+](=O)[O-])cc1` .
Result: 9.8

Ask: Give recorded growth. `FC(F)(F)c1cc2c(Cl)ncnc2n1CCC1CCOCC1`
Result: 97.6

Ask: Provide only the value of recorded growth for `CCc1ccccc1-c1nc(CN[C@@H]2C[C@@H]3C[C@H]([C@H]2C)C3(C)C)c(C)o1`
Result: -49.7

Ask: Return the recorded growth value; entry: `COc1ccc(/C=C/c2nc3ccccc3n3c(-c4cccc([N+](=O)[O-])c4)nnc23)cc1`
Result: -4.88

Ask: For the compound `O=C(CSc1nc2sc3c(c2c(=O)n1-c1ccc(Cl)cc1)CCCC3)N/N=C/C=C/c1ccccc1` , report growth.
Result: -18.3

Ask: Answer with the recorded growth of `COc1ccc(NC(=O)Cn2c(/C=C/c3cccc(Br)c3)nc3ccccc3c2=O)cc1` only.
Result: 16.5
